Values compiled from PubChem BioAssay AID1963871.

Test system: KRAS-mutant PDC multicell tumor spheroid viability
Experiment: Anticancer human tumor 521955-158-R2-J5-PDC patient-derived pancreatic carcinoma cell line growth inhibition [KRAS2]; active means viability on the fitted dose curve at most 10% of control; inactive means the rest
Conditions: second compound 3.16 µM; first compound 0.001 µM
Please reply with one of these outcomes: active, inactive

molecule: CN(C)C/C=C/C(=O)Nc1cc2c(Nc3ccc(F)c(Cl)c3)ncnc2cc1O[C@H]1CCOC1 + CNCc1ccccc1-c1csc(C(C)Nc2nc(C)nc3cc(OC)c(OC)cc23)c1
tested-system: KRAS-mutant PDC multicell tumor spheroid viability
category-label: inactive
//
molecule: CN(C)C/C=C/C(=O)Nc1cc2c(Nc3ccc(F)c(Cl)c3)ncnc2cc1O[C@H]1CCOC1 + CC1OCC2(CCN(c3cnc(Sc4ccnc(N)c4Cl)c(N)n3)CC2)C1N
tested-system: KRAS-mutant PDC multicell tumor spheroid viability
category-label: inactive
//
molecule: Cn1ncnc1[C@H]1c2n[nH]c(=O)c3cc(F)cc(c23)N[C@@H]1c1ccc(F)cc1 + CC1OCC2(CCN(c3cnc(Sc4ccnc(N)c4Cl)c(N)n3)CC2)C1N
tested-system: KRAS-mutant PDC multicell tumor spheroid viability
category-label: inactive
//
molecule: CN(C)C/C=C/C(=O)Nc1cc2c(Nc3ccc(F)c(Cl)c3)ncnc2cc1O[C@H]1CCOC1 + C=CC(=O)N1CCN(c2nc(=O)n(-c3c(C)ccnc3C(C)C)c3nc(-c4c(O)cccc4F)c(F)cc23)C(C)C1
tested-system: KRAS-mutant PDC multicell tumor spheroid viability
category-label: inactive
//
molecule: CC(=O)Nc1cccc(-n2c(=O)n(C3CC3)c(=O)c3c(Nc4ccc(I)cc4F)n(C)c(=O)c(C)c32)c1 + COc1cc2nc(C)nc(NC(C)c3cc(N)cc(C(F)(F)F)c3)c2cc1OC1CCOC1
tested-system: KRAS-mutant PDC multicell tumor spheroid viability
category-label: inactive
//
molecule: CC(=O)Nc1cccc(-n2c(=O)n(C3CC3)c(=O)c3c(Nc4ccc(I)cc4F)n(C)c(=O)c(C)c32)c1 + CC1OCC2(CCN(c3cnc(Sc4ccnc(N)c4Cl)c(N)n3)CC2)C1N
tested-system: KRAS-mutant PDC multicell tumor spheroid viability
category-label: inactive
//
molecule: CC(C)n1nc(-c2ccc3oc(N)nc3c2)c2c(N)ncnc21 + CNCc1ccccc1-c1csc(C(C)Nc2nc(C)nc3cc(OC)c(OC)cc23)c1
tested-system: KRAS-mutant PDC multicell tumor spheroid viability
category-label: inactive
//
molecule: Cn1ncnc1[C@H]1c2n[nH]c(=O)c3cc(F)cc(c23)N[C@@H]1c1ccc(F)cc1 + COc1cc2nc(C)nc(NC(C)c3cc(N)cc(C(F)(F)F)c3)c2cc1OC1CCOC1
tested-system: KRAS-mutant PDC multicell tumor spheroid viability
category-label: inactive

Exam item: Kindly provide the recorded test outcome for the following molecule: CC(C)n1nc(-c2ccc3oc(N)nc3c2)c2c(N)ncnc21 + C=CC(=O)N1CCN(c2nc(OCC3CCCN3C)nc3c2CCN(c2cccc4cccc(C)c24)C3)CC1CC#N
Marked response: inactive

Exam item: Kindly provide the recorded test outcome for the following molecule: Cn1ncnc1[C@H]1c2n[nH]c(=O)c3cc(F)cc(c23)N[C@@H]1c1ccc(F)cc1 + CNCc1ccccc1-c1csc(C(C)Nc2nc(C)nc3cc(OC)c(OC)cc23)c1
Marked response: active

Exam item: Kindly provide the recorded test outcome for the following molecule: CN(C)C/C=C/C(=O)Nc1cc2c(Nc3ccc(F)c(Cl)c3)ncnc2cc1O[C@H]1CCOC1 + C=CC(=O)N1CCN(c2nc(OCC3CCCN3C)nc3c2CCN(c2cccc4cccc(C)c24)C3)CC1CC#N
Marked response: active

----------
Tested on: KRAS-mutant PDC multicell tumor spheroid viability
Experiment: Anticancer human tumor 521955-158-R2-J5-PDC cell line growth inhibition [KRAS2]; active = viability on the fitted dose curve at most 10% of control; inactive = the rest;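 further: viability read after seven days of drug exposure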
Details: second compound 3.16 µM; first compound 1 µM
Please reply with one of these outcomes: 1 = active, 0 = inactive

Worked examples, 4 compounds total:
compound: COc1cc(Nc2ncc3c(n2)-c2ccc(Cl)cc2C(c2c(F)cccc2OC)=NC3)ccc1C(=O)O + CC1OCC2(CCN(c3cnc(Sc4ccnc(N)c4Cl)c(N)n3)CC2)C1N
category-label: 0
//
compound: COc1cc2nccc(Oc3ccc(NC(=O)C4(C(=O)Nc5ccc(F)cc5)CC4)cc3)c2cc1OC + COc1cc2nc(C)nc(NC(C)c3cc(N)cc(C(F)(F)F)c3)c2cc1OC1CCOC1
category-label: 0
//
compound: O=C(c1cc(Cc2n[nH]c(=O)c3ccccc23)ccc1F)N1CCN(C(=O)C2CC2)CC1 + CC1OCC2(CCN(c3cnc(Sc4ccnc(N)c4Cl)c(N)n3)CC2)C1N
category-label: 0
//
compound: COc1cc2nccc(Oc3ccc(NC(=O)C4(C(=O)Nc5ccc(F)cc5)CC4)cc3)c2cc1OC + C=CC(=O)N1CCN(c2nc(OCC3CCCN3C)nc3c2CCN(c2cccc4cccc(C)c24)C3)CC1CC#N
category-label: 1

Exam item: Kindly provide the recorded test outcome for the following compound: CC(=O)OC12COC1CC(O)C1(C)C(=O)C(O)C3=C(C)C(OC(=O)C(O)C(NC(=O)OC(C)(C)C)c4ccccc4)CC(O)(C(OC(=O)c4ccccc4)C21)C3(C)C (stereo not given) + C=CC(=O)N1CCN(c2nc(OCC3CCCN3C)nc3c2CCN(c2cccc4cccc(C)c24)C3)CC1CC#N
Marked response: 0

----------
System: KRAS-mutant PDC multicell tumor spheroid viability
Assay: Anticancer human tumor 521955-158-R2-J5-PDC cell line growth inhibition [KRAS2];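 further: viability read after seven days of drug exposure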
Details: second compound 0.1 µM; first compound 0.0316 µM; hits give low values
Attribute: viability, T/C

Known results for molecules:
molecule: CN(C)C/C=C/C(=O)Nc1cc2c(Nc3ccc(F)c(Cl)c3)ncnc2cc1O[C@H]1CCOC1 + CNCc1ccccc1-c1csc(C(C)Nc2nc(C)nc3cc(OC)c(OC)cc23)c1
value-measured: 88.9%
//
molecule: CC1OCC2(CCN(c3cnc(Sc4ccnc(N)c4Cl)c(N)n3)CC2)C1N (stereo not given) + C=CC(=O)N1CCN(c2nc(OCC3CCCN3C)nc3c2CCN(c2cccc4cccc(C)c24)C3)CC1CC#N
value-measured: 99.8%
//
molecule: CC(C)n1nc(-c2ccc3oc(N)nc3c2)c2c(N)ncnc21 + C=CC(=O)N1CCN(c2nc(=O)n(-c3c(C)ccnc3C(C)C)c3nc(-c4c(O)cccc4F)c(F)cc23)C(C)C1
value-measured: 36.7%
//
molecule: Cn1ncnc1[C@H]1c2n[nH]c(=O)c3cc(F)cc(c23)N[C@@H]1c1ccc(F)cc1 + COc1cc2nc(C)nc(NC(C)c3cc(N)cc(C(F)(F)F)c3)c2cc1OC1CCOC1
value-measured: 70.3%
//
molecule: CCN1CCN(Cc2ccc(Nc3ncc(F)c(-c4cc(F)c5nc(C)n(C(C)C)c5c4)n3)nc2)CC1 + COc1cc2nc(C)nc(NC(C)c3cc(N)cc(C(F)(F)F)c3)c2cc1OC1CCOC1
value-measured: 79.2%
//
molecule: CC1(C)CCC(CN2CCN(c3ccc(C(=O)NS(=O)(=O)c4ccc(NCC5CCOCC5)c([N+](=O)[O-])c4)c(Oc4cnc5[nH]ccc5c4)c3)CC2)=C(c2ccc(Cl)cc2)C1 + CNCc1ccccc1-c1csc(C(C)Nc2nc(C)nc3cc(OC)c(OC)cc23)c1
value-measured: 98.8%

Exam item: Look up viability, T/C of O=C(c1cc(Cc2n[nH]c(=O)c3ccccc23)ccc1F)N1CCN(C(=O)C2CC2)CC1 + COc1cc2nc(C)nc(NC(C)c3cc(N)cc(C(F)(F)F)c3)c2cc1OC1CCOC1 and report it.
Marked response: 92.5%

Exam item: Look up viability, T/C of CC(=O)OC12COC1CC(O)C1(C)C(=O)C(O)C3=C(C)C(OC(=O)C(O)C(NC(=O)OC(C)(C)C)c4ccccc4)CC(O)(C(OC(=O)c4ccccc4)C21)C3(C)C (stereo not given) + CC1OCC2(CCN(c3cnc(Sc4ccnc(N)c4Cl)c(N)n3)CC2)C1N and report it.
Marked response: 15.3%

Exam item: Look up viability, T/C of CC1COCCN1c1cc(-c2ccnn2C)c2ccnc(-c3ccn[nH]3)c2n1 (stereo not given) + C=CC(=O)N1CCN(c2nc(=O)n(-c3c(C)ccnc3C(C)C)c3nc(-c4c(O)cccc4F)c(F)cc23)C(C)C1 and report it.
Marked response: 47.9%

Exam item: Look up viability, T/C of Cn1ncnc1[C@H]1c2n[nH]c(=O)c3cc(F)cc(c23)N[C@@H]1c1ccc(F)cc1 + CNCc1ccccc1-c1csc(C(C)Nc2nc(C)nc3cc(OC)c(OC)cc23)c1 and report it.
Marked response: 81.7%

----------
Test system: KRAS-mutant PDC multicell tumor spheroid viability
Assay: Anticancer human tumor 521955-158-R2-J5-PDC cell line growth inhibition [KRAS2];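 further: viability read after seven days of drug exposure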
Conditions: second compound 0.316 µM; first compound 0.001 µM; hits give low values
Definition: the class of an entry is the range in low bin = under 60%, mid bin = from 60% up to 90%, high bin = 90% and over that contains its viability, T/C.

Worked examples, 5 molecules total:
molecule: CC(=O)Nc1cccc(-n2c(=O)n(C3CC3)c(=O)c3c(Nc4ccc(I)cc4F)n(C)c(=O)c(C)c32)c1 + C=CC(=O)N1CCN(c2nc(=O)n(-c3c(C)ccnc3C(C)C)c3nc(-c4c(O)cccc4F)c(F)cc23)C(C)C1
category-label: low bin
//
molecule: CC(=O)Nc1cccc(-n2c(=O)n(C3CC3)c(=O)c3c(Nc4ccc(I)cc4F)n(C)c(=O)c(C)c32)c1 + COc1cc2nc(C)nc(NC(C)c3cc(N)cc(C(F)(F)F)c3)c2cc1OC1CCOC1
category-label: low bin
//
molecule: CC(=O)Nc1cccc(-n2c(=O)n(C3CC3)c(=O)c3c(Nc4ccc(I)cc4F)n(C)c(=O)c(C)c32)c1 + CNCc1ccccc1-c1csc(C(C)Nc2nc(C)nc3cc(OC)c(OC)cc23)c1
category-label: low bin
//
molecule: CN(C)C/C=C/C(=O)Nc1cc2c(Nc3ccc(F)c(Cl)c3)ncnc2cc1O[C@H]1CCOC1 + C=CC(=O)N1CCN(c2nc(=O)n(-c3c(C)ccnc3C(C)C)c3nc(-c4c(O)cccc4F)c(F)cc23)C(C)C1
category-label: high bin
//
molecule: CN(C)C/C=C/C(=O)Nc1cc2c(Nc3ccc(F)c(Cl)c3)ncnc2cc1O[C@H]1CCOC1 + CC1OCC2(CCN(c3cnc(Sc4ccnc(N)c4Cl)c(N)n3)CC2)C1N
category-label: mid bin

Exam item: Quick check: band for CC(C)n1nc(-c2ccc3oc(N)nc3c2)c2c(N)ncnc21 + CNCc1ccccc1-c1csc(C(C)Nc2nc(C)nc3cc(OC)c(OC)cc23)c1
Marked response: mid bin

Exam item: Quick check: band for Cn1ncnc1[C@H]1c2n[nH]c(=O)c3cc(F)cc(c23)N[C@@H]1c1ccc(F)cc1 + C=CC(=O)N1CCN(c2nc(OCC3CCCN3C)nc3c2CCN(c2cccc4cccc(C)c24)C3)CC1CC#N
Marked response: high bin

Exam item: Quick check: band for CC(C)n1nc(-c2ccc3oc(N)nc3c2)c2c(N)ncnc21 + C=CC(=O)N1CCN(c2nc(=O)n(-c3c(C)ccnc3C(C)C)c3nc(-c4c(O)cccc4F)c(F)cc23)C(C)C1
Marked response: high bin

Exam item: Quick check: band for CN(C)C/C=C/C(=O)Nc1cc2c(Nc3ccc(F)c(Cl)c3)ncnc2cc1O[C@H]1CCOC1 + COc1cc2nc(C)nc(NC(C)c3cc(N)cc(C(F)(F)F)c3)c2cc1OC1CCOC1
Marked response: mid bin

Exam item: Quick check: band for Cn1ncnc1[C@H]1c2n[nH]c(=O)c3cc(F)cc(c23)N[C@@H]1c1ccc(F)cc1 + C=CC(=O)N1CCN(c2nc(=O)n(-c3c(C)ccnc3C(C)C)c3nc(-c4c(O)cccc4F)c(F)cc23)C(C)C1
Marked response: high bin

Exam item: Quick check: band for CC(=O)Nc1cccc(-n2c(=O)n(C3CC3)c(=O)c3c(Nc4ccc(I)cc4F)n(C)c(=O)c(C)c32)c1 + CC1OCC2(CCN(c3cnc(Sc4ccnc(N)c4Cl)c(N)n3)CC2)C1N
Marked response: low bin

Exam item: Quick check: band for CC(C)n1nc(-c2ccc3oc(N)nc3c2)c2c(N)ncnc21 + COc1cc2nc(C)nc(NC(C)c3cc(N)cc(C(F)(F)F)c3)c2cc1OC1CCOC1
Marked response: mid bin

Exam item: Quick check: band for Cn1ncnc1[C@H]1c2n[nH]c(=O)c3cc(F)cc(c23)N[C@@H]1c1ccc(F)cc1 + CNCc1ccccc1-c1csc(C(C)Nc2nc(C)nc3cc(OC)c(OC)cc23)c1
Marked response: mid bin

Exam item: Quick check: band for CC(=O)Nc1cccc(-n2c(=O)n(C3CC3)c(=O)c3c(Nc4ccc(I)cc4F)n(C)c(=O)c(C)c32)c1 + C=CC(=O)N1CCN(c2nc(OCC3CCCN3C)nc3c2CCN(c2cccc4cccc(C)c24)C3)CC1CC#N
Marked response: low bin

Exam item: Quick check: band for CN(C)C/C=C/C(=O)Nc1cc2c(Nc3ccc(F)c(Cl)c3)ncnc2cc1O[C@H]1CCOC1 + CNCc1ccccc1-c1csc(C(C)Nc2nc(C)nc3cc(OC)c(OC)cc23)c1
Marked response: high bin

Exam item: Quick check: band for CN(C)C/C=C/C(=O)Nc1cc2c(Nc3ccc(F)c(Cl)c3)ncnc2cc1O[C@H]1CCOC1 + C=CC(=O)N1CCN(c2nc(OCC3CCCN3C)nc3c2CCN(c2cccc4cccc(C)c24)C3)CC1CC#N
Marked response: mid bin

Exam item: Quick check: band for CC(C)n1nc(-c2ccc3oc(N)nc3c2)c2c(N)ncnc21 + CC1OCC2(CCN(c3cnc(Sc4ccnc(N)c4Cl)c(N)n3)CC2)C1N
Marked response: low bin
